ASSAY DETAILS: Inhibition of NAT in Wistar rat synaptosomes assessed as [3H]-NA reuptake by liquid scintillation counting
Format: subcellular
List of IC50 values.
Answer in nM, number only, no unit symbol.

>>> df
                                   molecule  data_value
0  COc1cc2ccc(OC3CC4CCC(C3)N4C)cc2oc1=O (centres undefined)        0.48
1  Cc1ccc(C2CC3CCC(C2)N3C)cc1Br (centres undefined)          15
2  CN1C2CCC1CC(Oc1ccc3cc(-c4ccoc4)c(=O)oc3c1)C2 (centres undefined)         3.8

Then there is this molecule:
Query CN1C2CCC1CC(c1ccc3ccccc3c1)C2 (centres undefined) yields IC50 of 18
